# TESTED TARGET: HLA-A*6802 (human)
# TEST: competition with 125I standard peptide for purified HLA; gel filtration
# CONDITIONS: remark: other sources report otherwise
pIC50: −log10 of the molar value.
READOUT KIND: pIC50

1. LLSNDMCARV (modifications not checked) [Peptide 1418.53 … (HuK2.178.V10)]
2. KVTEFMLCV (modifications not checked) [Peptide 1418.21 … (HuK2.191.V9)]
**Query** Between 1 and 2 , which one shows the smaller pIC50 number? To answer, give the label that identifies your chosen option.
**Result** 2
(2: 5.18, 1: 5.77)
